System: CYP2C19
Assay explanation: dosing recommendation per CYP2C19 metabolizer subgroup as percentage of usual population dose (Equations 4-6)
Measurement conditions: human
Source text: Assuming the goal is to maintain the same AUC for all three subpopulations of patients, the following subpopulation dosing relationships hold: DPM=DEM*(AUCEM/AUCPM) OR DPM=DEM*R if R=(AUCEM/AUCPM) (Equation 2) DIM=DEM*(AUCEM/AUCIM) OR DIM=DEM*S if S=(AUCEM/AUCIM) (Equation 3) […]
Recorded measurements of UM (%) dosing recommendation, one per entry
Measured parameter: UM (%) dosing recommendation

{"columns": ["Compound", "Value reported"],
 "data": [
  ["CN(C)CCCN1c2ccccc2CCc2ccc(Cl)cc21", "110%"],
  ["CN[C@H]1CC[C@@H](c2ccc(Cl)c(Cl)c2)c2ccccc21", "105%"],
  ["CN1CCN2c3ccccc3Cc3ccccc3C2C1 (centres unmarked)", "100%"],
  ["CNCCCC12CCC(c3ccccc31)c1ccccc12", "100%"],
  ["CN(C)CCCC1(c2ccc(F)cc2)OCc2cc(C#N)ccc21 (centres unmarked)", "108%"],
  ["CC(CN(C)C)CN1c2ccccc2CCc2ccccc21 (centres unmarked)", "111%"],
  ["O=C(NCCN1CCOCC1)c1ccc(Cl)cc1 [moclobemide]", "110%"],
  ["CN1CCN(C2=Nc3cc(Cl)ccc3Nc3ccccc32)CC1", "104%"]
]}

* * *

Tested on: CYP2D6
Measurement conditions: CYP2D6 ultrarapid metabolizers; percent of usual dose

{"columns": ["Compound", "Target", "Unit tag", "UM (%) dosing recommendation"],
 "data": [
  ["Fc1ccc([C@@H]2CCNC[C@H]2COc2ccc3c(c2)OCO3)cc1", "CYP2D6", "%", 138],
  ["COc1ccc(C(CN(C)C)C2(O)CCCCC2)cc1 (stereo not shown)", "CYP2D6", "%", 130],
  ["OCCN1CCN(CCCN2c3ccccc3Sc3ccc(Cl)cc32)CC1", "CYP2D6", "%", 178],
  ["O=C1CCc2ccc(OCCCCN3CCN(c4cccc(Cl)c4Cl)CC3)cc2N1", "CYP2D6", "%", 134]
]}

* * *

Tested on: CYP2C9
Assay explanation: dosing recommendation per CYP2C9 metabolizer subgroup as percentage of usual population dose (Equations 4-6)
Set-up: species or system human
Measurement conditions: CYP2C9, head prints UM; percent of usual dose
Recorded measurements of UM (%) dosing recommendation, one per entry
Measured parameter: UM (%) dosing recommendation

{"columns": ["Compound", "Unit tag", "Value reported"],
 "data": [
  ["CCCNC(=O)NS(=O)(=O)c1ccc(Cl)cc1 [Diabinese]", "%", 120],
  ["CCCCc1nc(Cl)c(CO)n1Cc1ccc(-c2ccccc2-c2nn[nH]n2)cc1 [Cozaar]", "%", 100],
  ["CC(C)n1c(/C=C/[C@@H](O)C[C@@H](O)CC(=O)O)c(-c2ccc(F)cc2)c2ccccc21 (racemic) [Lescol]", "%", 100],
  ["CCC1=C(C)CN(C(=O)NCCc2ccc(S(=O)(=O)NC(=O)N[C@H]3CC[C@H](C)CC3)cc2)C1=O [Amaryl]", "%", 120],
  ["O=C1NC(=O)C(c2ccccc2)(c2ccccc2)N1 [Dilantin]", "%", 110],
  ["Cc1ccc(-c2cc(C(F)(F)F)nn2-c2ccc(S(N)(=O)=O)cc2)cc1 [Celebrex]", "%", 100],
  ["CC(=O)CC(c1ccccc1)c1c(O)c2ccccc2oc1=O (stereo not shown) [Coumadin]", "%", 130]
]}

* * *

Tested on: CYP2C9
Assay explanation: dosing recommendation per CYP2C9 metabolizer subgroup as percentage of usual population dose (Equations 4-6)
Set-up: species or system human
Measurement conditions: CYP2C9 intermediate metabolizers; percent of usual dose

{"columns": ["Compound", "IM (%) dosing recommendation"],
 "data": [
  ["CCCCc1nc(Cl)c(CO)n1Cc1ccc(-c2ccccc2-c2nn[nH]n2)cc1 [Cozaar]", "50%"],
  ["CCC1=C(C)CN(C(=O)NCCc2ccc(S(=O)(=O)NC(=O)N[C@H]3CC[C@H](C)CC3)cc2)C1=O [Amaryl]", "70%"],
  ["CCCNC(=O)NS(=O)(=O)c1ccc(Cl)cc1 [Diabinese]", "60%"],
  ["CC(C)n1c(/C=C/[C@@H](O)C[C@@H](O)CC(=O)O)c(-c2ccc(F)cc2)c2ccccc21 (racemic) [Lescol]", "80%"],
  ["O=C1NC(=O)C(c2ccccc2)(c2ccccc2)N1 [Dilantin]", "70%"],
  ["CC(=O)CC(c1ccccc1)c1c(O)c2ccccc2oc1=O (stereo not shown) [Coumadin]", "50%"],
  ["Cc1ccc(-c2cc(C(F)(F)F)nn2-c2ccc(S(N)(=O)=O)cc2)cc1 [Celebrex]", "70%"]
]}

* * *

Recorded measurements of PM (%) dosing recommendation, one per entry
Tested on: CYP2D6
Measurement conditions: human

{"columns": ["Compound", "PM (%) dosing recommendation"],
 "data": [
  ["CNCCC=C1c2ccccc2CCc2ccccc21", "53%"],
  ["CN1CCN2c3ccccc3Cc3ccccc3C2C1 (centres unmarked)", "74%"],
  ["CN[C@H]1CC[C@@H](c2ccc(Cl)c(Cl)c2)c2ccccc21", "99%"],
  ["O=c1n(CCCN2CCN(c3cccc(Cl)c3)CC2)nc2ccccn12", "76%"],
  ["CN1CCN(CCCN2c3ccccc3Sc3ccccc32)CC1", "86%"],
  ["CC(CN(C)C)CN1c2ccccc2CCc2ccccc21 (centres unmarked)", "37%"],
  ["CN(C)CCC=C1c2ccccc2CCc2ccccc21", "73%"],
  ["O=c1[nH]c2ccccc2n1C1CCN(CCCC(c2ccc(F)cc2)c2ccc(F)cc2)CC1 [pimozide]", "95%"],
  ["CNCCCN1c2ccccc2CCc2ccccc21", "42%"],
  ["OCCN1CCN(CC/C=C2/c3ccccc3Sc3ccc(Cl)cc32)CC1", "63%"],
  ["CNCCCC12CCC(c3ccccc31)c1ccccc12", "36%"],
  ["CN1CCN(C2=Nc3cc(Cl)ccc3Nc3ccccc32)CC1", "113%"],
  ["CNCCC(Oc1ccc(C(F)(F)F)cc1)c1ccccc1 (centres unmarked)", "78%"],
  ["CN1CCN2c3ncccc3Cc3ccccc3C2C1 (centres unmarked)", "102%"],
  ["O=C(CCCN1CCC(O)(c2ccc(Cl)cc2)CC1)c1ccc(F)cc1", "76%"],
  ["O=C(NCCN1CCOCC1)c1ccc(Cl)cc1 [moclobemide]", "121%"],
  ["CN(C)CCC=C1c2ccccc2COc2ccccc21 [doxepin]", "36%"],
  ["CCc1nn(CCCN2CCN(c3cccc(Cl)c3)CC2)c(=O)n1CCOc1ccccc1", "90%"],
  ["COc1ccc2c(c1)N(C[C@H](C)CN(C)C)c1ccccc1S2", "100%"],
  ["CN(C)CCCC1(c2ccc(F)cc2)OCc2cc(C#N)ccc21 (centres unmarked)", "98%"]
]}

* * *

Tested on: CYP2D6
Measurement conditions: human
Recorded measurements of 1 al (effect of 1 non-functional allele), one per entry

{"columns": ["Compound", "Target", "1 al (effect of 1 non-functional allele)"],
 "data": [
  ["CNCCC=C1c2ccccc2CCc2ccccc21", "CYP2D6", 0.19],
  ["CN(C)CCC=C1c2ccccc2COc2ccccc21 [doxepin]", "CYP2D6", 0.35],
  ["CN1CCN2c3ncccc3Cc3ccccc3C2C1 (centres unmarked)", "CYP2D6", "−0.02"],
  ["O=C(CCCN1CCC(O)(c2ccc(Cl)cc2)CC1)c1ccc(F)cc1", "CYP2D6", 0.09],
  ["Cc1nc2n(c(=O)c1CCN1CCC(c3noc4cc(F)ccc34)CC1)CCCC2", "CYP2D6", 0.09]
]}

* * *

Tested on: CYP2D6
Measurement conditions: human
Measured parameter: EM (%) dosing recommendation

{"columns": ["Smiles record", "Value reported"],
 "data": [
  ["CNCCC=C1c2ccccc2CCc2ccccc21", 119],
  ["O=C(CCCN1CCC(O)(c2ccc(Cl)cc2)CC1)c1ccc(F)cc1", 107],
  ["COc1ccc2c(c1)N(C[C@H](C)CN(C)C)c1ccccc1S2", 100],
  ["CN1CCN(C2=Nc3cc(Cl)ccc3Nc3ccccc32)CC1", 94],
  ["CNCCCC12CCC(c3ccccc31)c1ccccc12", 127]
]}

* * *

Tested on: CYP2D6
Measurement conditions: human
Recorded measurements of IM (%) dosing recommendation, one per entry

{"columns": ["Compound", "Target", "IM (%) dosing recommendation"],
 "data": [
  ["CN[C@H]1CC[C@@H](c2ccc(Cl)c(Cl)c2)c2ccccc21", "CYP2D6", 100],
  ["CCc1nn(CCCN2CCN(c3cccc(Cl)c3)CC2)c(=O)n1CCOc1ccccc1", "CYP2D6", 97],
  ["CN1CCN2c3ncccc3Cc3ccccc3C2C1 (stereo not shown)", "CYP2D6", 101],
  ["O=C(NCCN1CCOCC1)c1ccc(Cl)cc1 [moclobemide]", "CYP2D6", 107],
  ["CN1CCN2c3ccccc3Cc3ccccc3C2C1 (stereo not shown)", "CYP2D6", 90],
  ["O=C(CCCN1CCC(O)(c2ccc(Cl)cc2)CC1)c1ccc(F)cc1", "CYP2D6", 97],
  ["CC(CN(C)C)CN1c2ccccc2CCc2ccccc21 (stereo not shown)", "CYP2D6", 91],
  ["CNCCC=C1c2ccccc2CCc2ccccc21", "CYP2D6", 96],
  ["CN1CCN(CCCN2c3ccccc3Sc3ccccc32)CC1", "CYP2D6", 91],
  ["CN(C)CCC=C1c2ccccc2COc2ccccc21 [doxepin]", "CYP2D6", 82]
]}

Origin of values: patent US8589175B2
